Test system: 3D7-MR4 trophozoite parasite-infected RBCs
MEASUREMENT NOTES: Metabolomic profiling (hydrophilic metabolite changes, UHPLC-MS)
Format: cell-based, Plasmodium falciparum
ASSAY CONDITIONS: metabolite UMP; log2 fold change
RECORDED METRIC: Log2(fold changes) UMP
Give only the figure.

Query: Write down the reported Log2(fold changes) UMP of O=C1C(O)=C([C@H]2CC[C@H](c3ccc(Cl)cc3)CC2)C(=O)c2ccccc21 [Atovaquone, reference compound] , test system: 3D7-MR4 trophozoite parasite-infected RBCs.
Reply: -0.5975

Query: Recorded Log2(fold changes) UMP for FC(F)(F)c1ccc(Nc2cc3[nH]c(-c4cccc(C(F)(F)F)c4)nc3cn2)nc1 [MMV675939] with 3D7-MR4 trophozoite parasite-infected RBCs, please?
Reply: -0.1084

Query: Which measured Log2(fold changes) UMP belongs to OC(c1cc(C(F)(F)F)nc2c(C(F)(F)F)cccc12)C1CCCCN1 (stereo not shown) [Mefloquine, reference compound] , tested on 3D7-MR4 trophozoite parasite-infected RBCs?
Reply: -0.1565

Query: Provide value of Log2(fold changes) UMP for this record tested with 3D7-MR4 trophozoite parasite-infected RBCs: CNc1nc(NCCCN(C)C)c2sc(-c3cccc(C(F)(F)F)c3)cc2n1 [MMV668311]
Reply: -0.3054

Query: What reported Log2(fold changes) UMP corresponds to Cc1cc(Nc2ccc(S(F)(F)(F)(F)F)cc2)n2nc(C(C)(F)F)nc2n1 [DSM265, reference compound] on 3D7-MR4 trophozoite parasite-infected RBCs?
Reply: -0.9900

Query: Value wanted: Log2(fold changes) UMP (3D7-MR4 trophozoite parasite-infected RBCs) of entry O=C(Nc1ccc(N2CCNCC2)cc1)c1ccn2ncc(-c3cccc(Cl)c3)c2n1.O=C(O)C(F)(F)F [MMV022478]
Reply: -1.4504

Query: I'm curious: which Log2(fold changes) UMP was measured for COc1ccc(C2c3ccc4ccccc4c3Oc3ncn(CCCN(C)C)c(=N)c32)cc1 (stereo not shown) [MMV667491] tested on 3D7-MR4 trophozoite parasite-infected RBCs?
Reply: -1.0091

Query: I'm curious: which Log2(fold changes) UMP was measured for C[C@H]1Cc2c([nH]c3cc(Cl)c(F)cc23)[C@@]2(N1)C(=O)Nc1ccc(Cl)cc12 [KAE609, reference compound] tested on 3D7-MR4 trophozoite parasite-infected RBCs?
Reply: -0.3800

Query: Hi! What's the reported Log2(fold changes) UMP for COc1cc(-c2nc(-c3ccccc3)c(-c3ccccc3)[nH]2)ccc1OCCN(C)C [MMV027496] on 3D7-MR4 trophozoite parasite-infected RBCs?
Reply: 0.0423

Query: # get_value(readout= Log2(fold changes) UMP, system= 3D7-MR4 trophozoite parasite-infected RBCs) for CN(C)c1ccc2nc3ccc(=[N+](C)C)cc-3sc2c1 [Methylene blue, reference compound]
Reply: -0.2463

Query: Return Log2(fold changes) UMP measured with 3D7-MR4 trophozoite parasite-infected RBCs given this molecule: Cc1cc(Nc2ccc(OCc3ccccc3)cc2)nc2cc(O)ccc12 [MMV007181]
Reply: -0.1123

Query: Provide the documented Log2(fold changes) UMP with 3D7-MR4 trophozoite parasite-infected RBCs as the system for CCCOCc1cc(CN2CCN(c3cccc(Cl)c3)CC2)c(O)c2ncccc12 [MMV000787]
Reply: -0.1735

Query: Item: CC(C)(C)c1ccc2c(c1)CN(Cc1ccc(Cl)cc1)CO2 [MMV000442] Test system: 3D7-MR4 trophozoite parasite-infected RBCs Read-out: Log2(fold changes) UMP Value: ?
Reply: -0.0965

Query: Form field - read-out: Log2(fold changes) UMP; system: 3D7-MR4 trophozoite parasite-infected RBCs; submitted item: CC(C)(C)NCc1cc(Nc2ccnc3cc(Cl)ccc23)c2c(c1O)CCCC2 [Naphtoquine, Naphthoquine, reference compound]
Reply: -0.1186

Query: // map Clc1ccc2c(N3CCN(CCCN4CCN(c5ccnc6cc(Cl)ccc56)CC4)CC3)ccnc2c1 [Piperaquine, reference compound] to recorded Log2(fold changes) UMP (system: 3D7-MR4 trophozoite parasite-infected RBCs)
Reply: -0.2304

Query: Kindly state the measured Log2(fold changes) UMP obtained for CCOC(=O)C1=C(C)NC2=C(C(=O)CC(c3ccc(OC)c(OC)c3)C2)C1c1ccccc1Cl (stereo not shown) [GNF-Pf-5660, reference compound] with 3D7-MR4 trophozoite parasite-infected RBCs.
Reply: -0.3498

Values were extracted from paper PMC7031696.
